Hello, the source for this data is ChEMBL document CHEMBL2385069, in case you need it.

Tested on: Priestia megaterium
ASSAY_SUMMARY: Antibacterial activity against Bacillus megaterium ATCC 9885 assessed as diameter of inhibition zone at 1 mg/ml after 24 hrs by agar well diffusion method
Format: functional
TEST_CONDITIONS: ATCC 9885, 24 h, read-out: DIZ
ENDPOINT_LABEL: zone of inhibition at 1000 µg/mL (mm)

1. O=C(O)CNC(=O)c1ccc(NC(=S)NNS(=O)(=O)c2ccccc2)cc1 ... 31
2. O=C(O)CNC(=O)c1ccc(NC(=S)Nc2c3ccccc3nc3ccccc23)cc1 ... 18
3. O=C(O)CNC(=O)c1ccc(NC(=S)Nc2ccccc2)cc1 ... 13
4. Cc1ccc(NC(=S)Nc2ccc(C(=O)NCC(=O)O)cc2)cc1 ... 19
5. O=C(O)CNC(=O)c1ccc(NC(=S)NNC(=O)c2ccncc2)cc1 ... 23
6. CCCCNC(=S)Nc1ccc(C(=O)NCC(=O)O)cc1 ... 16
7. Cc1c(NC(=S)Nc2ccc(C(=O)NCC(=O)O)cc2)c(=O)n(-c2ccccc2)n1C ... 18
8. NS(=O)(=O)c1ccc(NC(=S)Nc2ccc(C(=O)NCC(=O)O)cc2)cc1 ... 20
9. O=C(O)CNC(=O)c1ccc(NC(=S)Nc2ccc(F)cc2)cc1 ... 15
10. N=C(N)NS(=O)(=O)c1ccc(NC(=S)Nc2ccc(C(=O)NCC(=O)O)cc2)cc1 ... 20
11. CC(=O)NS(=O)(=O)c1ccc(NC(=S)Nc2ccc(C(=O)NCC(=O)O)cc2)cc1 ... 20
12. O=C(O)CNC(=O)c1ccc(NC(=S)Nc2ccc(S(=O)(=O)Nc3ccccn3)cc2)cc1 ... 0
13. CCCCCCNC(=S)Nc1ccc(C(=O)NCC(=O)O)cc1 ... 23
14. O=C(O)CNC(=O)c1ccc(NC(=S)Nc2ccc(NC(=S)Nc3ccc(C(=O)NCC(=O)O)cc3)cc2)cc1 ... 24
15. O=C(O)CNC(=O)c1ccc(NC(=S)Nc2ccc(S(=O)(=O)Nc3ncccn3)cc2)cc1 ... 27
16. O=C(O)CNC(=O)c1ccc(NC(=S)Nc2ccc(C(=O)NCC(=O)O)cc2)cc1 ... 17
17. O=C(O)CNC(=O)c1ccc(NC(=S)NNC(=O)c2ccccc2)cc1 ... 10
18. O=C(O)CNC(=O)c1ccc(NC(=S)Nc2cccc(F)c2)cc1 ... 27
